A collection of substances and their measured Response (cpm) of T cell clone PD12-2.40
- Tested on: Insulin specific NOD T cell clone PD12-2.40
- Assay notes: Proliferation of insulin-specific NOD T cell clone PD12-2.40
- Assay type: cell-based, mouse (NOD)
- Experimental conditions: 50 μg/ml peptide, 72 h, 3H-thymidine; no antigen 682 cpm
Measurement type: Response (cpm) of T cell clone PD12-2.40

Substance	Output unit	Value observed
Position 12: insulin B chain (9-23) analogue, native V at position 12 substituted with A (SHLAEALYLVCGERG)	cpm	671
Native 9-23: native peptide, residues 9-23 of human insulin B chain (SEQ ID NO:2) (SHLVEALYLVCGERG; Residues 9-23 of human insulin B chain; listed as Homo sapiens) [reference compound]	cpm	32221
Position 15: insulin B chain (9-23) analogue, native L at position 15 substituted with A (SHLVEAAYLVCGERG)	cpm	1422
Position 13: insulin B chain (9-23) analogue, native E at position 13 substituted with A (SHLVAALYLVCGERG)	cpm	519
Position 16: insulin B chain (9-23) analogue, native Y at position 16 substituted with A (SHLVEALALVCGERG)	cpm	539
